- Test system: influenza A and B viruses
- protocol summary: Plaque reduction assay, summary over the tested panel of viruses
- Type: cell-based
- reported conditions: Influenza A virus, read-out: EC50 values against these viruses
pEC50: −log10 of the molar value.
measure name: pEC50

Exercise: Entry Cc1cc(OCc2nnc(SC3CCCC3)n2-c2cccnc2)ccc1-c1ccc(S(C)(=O)=O)cc1 [NMS-873] , system influenza A and B viruses: what pEC50 was measured?
Key: 7.25 to 7.55

* * *

- protocol summary: in vitro
- reported conditions: dog
measure name: CC50 (nM)
# unit: nM | format: bare number

Exercise: Please report the recorded CC50 for Cc1cc(OCc2nnc(SC3CCCC3)n2-c2cccnc2)ccc1-c1ccc(S(C)(=O)=O)cc1 [NMS-873] .
Key: 2720

Just for reference, paper PMC6482079 is where these values come from.
